RA (relative affinity): recorded values
# Study System: HLA A2.1 molecule (human)
# Test Details: T2 cells, flow cytometry (BB7.2); reference HIVpol 589

Some solved cases for reference:
Binder	Assay Value
FLPWHRLFLL (modifications not checked) [Tyrosinase 207]	> 50
AMLGTHTMEV (modifications not checked) [gp100 177]	0.5
YLVPQQGFFC (modifications not checked) [HER-2/neu 1023]	19.6
ILAKFLHWL (modifications not checked) [mhp 540]	0.3
ILLVVVLGV (modifications not checked) [HER-2/neu 661]	> 60

get_value(item= LLDGTATLRL (modifications not checked) [gp100 457] , readout=RA (relative affinity)) returns 1.6

The value of RA (relative affinity) measured for the binder RLFFYRKSV (modifications not checked) [mhp 572] turned out to be 25.3

Entry YLQPEQLQV (modifications not checked) [HER-2/neu 391Y1] , RA (relative affinity) reported as 1.3

# binder SLADTNSLAV (modifications not checked) [gp100 570] ; its RA (relative affinity) = 1

Per the records, this binder ( ILTVILGVL (modifications not checked) [mart-1 32] ) has RA (relative affinity) equal to 21.1

Lab note: FLSTLVHGV (modifications not checked) [mp 876] gave RA (relative affinity) of 1.2
